IC50 listing for selected compounds.
- target_entity: human JAK2 catalytic kinase (JH1) domain (Homo sapiens (Human))
- Sequence (O60674 849-1124): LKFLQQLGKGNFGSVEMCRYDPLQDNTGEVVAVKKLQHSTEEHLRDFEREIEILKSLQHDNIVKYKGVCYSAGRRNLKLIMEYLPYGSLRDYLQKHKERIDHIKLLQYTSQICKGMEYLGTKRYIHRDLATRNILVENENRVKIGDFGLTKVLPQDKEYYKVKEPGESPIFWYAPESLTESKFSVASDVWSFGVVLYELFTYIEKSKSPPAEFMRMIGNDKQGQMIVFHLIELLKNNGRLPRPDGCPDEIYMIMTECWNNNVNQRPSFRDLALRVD
- assay_overview: ADP-Glo Kinase Assay, recombinant JAK2 catalytic kinase (JH1) domain
- Format: biochemical
- condition_description: recombinant JH1 domain 0.2 nM, 15 μM ATP, JAK3-974 peptide, mean, read-out: JAK2 biochem IC50 (nM) Mean
endpoint: IC50 (nM)

# compound, reported_result
measured = [
    ("Cc1cc(-c2cc3c(N4CC5CCC(C4)N5C(=O)[C@@H]4C[C@H]4F)ccnn3c2)ncn1 [Example 106]", 178),
    ("O=C([C@@H]1C[C@H]1F)N1C2CCC1CN(c1ncnn3cc(-c4ccc(=O)n(C(F)F)c4)cc13)C2 [Example 110]", 812),
    ("O=C(C1CC1)N1C2CCC1CN(c1ncnn3cc(-c4cnn([C@@H]5CCOC5)c4)cc13)C2 [Example 156]", 3860),
    ("Cn1cc(-c2cc3c(N4CC5CCC(C4)N5C(=O)C4CC4)ccnc3[nH]2)cn1 [Example 236]", 99),
    ("O=C([C@H]1CC1(F)F)N1C2CCC1CN(c1ncnn3cc(-c4cnn(C(F)F)c4)cc13)C2 (single isomer, unassigned) [Example 77]", 1410),
    ("Cn1cc(-c2cc3c(N4CC5CCC(C4)N5C(=O)C4CC4)ncnn3c2)cn1 [Example 146]", 5850),
    ("COc1nn(C)cc1-c1cc2c(N3CC4CCC(C3)N4C(=O)[C@@H]3C[C@H]3F)ccnn2c1 [Example 134]", 24),
]

###

compounds and their reported IC50
- target_entity: human JAK1 catalytic kinase (JH1) domain (Homo sapiens (Human))
- Sequence (P23458 875-1153): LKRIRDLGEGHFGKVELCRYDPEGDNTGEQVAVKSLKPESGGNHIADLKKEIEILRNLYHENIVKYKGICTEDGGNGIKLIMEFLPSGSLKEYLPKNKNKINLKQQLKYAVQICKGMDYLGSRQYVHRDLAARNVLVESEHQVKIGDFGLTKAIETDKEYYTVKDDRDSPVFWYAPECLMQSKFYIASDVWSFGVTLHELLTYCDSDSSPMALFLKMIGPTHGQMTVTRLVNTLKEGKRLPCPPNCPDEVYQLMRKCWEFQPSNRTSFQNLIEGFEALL
- assay_overview: ADP-Glo Kinase Assay, recombinant JAK1 catalytic kinase (JH1) domain
- Format: biochemical
- condition_description: recombinant JH1 domain 4 nM, 35 μM ATP, JAK3-342 peptide, mean, read-out: JAK1 biochem IC50 (nM) Mean

# compound, target_entity, u, IC50
measured = [
    ("Cc1c(-c2cc3c(N4CC5CCC(C4)N5C(=O)C4CC4)ncnn3c2)cnn1C", "human JAK1 catalytic kinase (JH1) domain (Homo sapiens (Human))", "nM", 5470),
    ("O=C([C@@H]1C[C@H]1CO)N1C2CCC1CN(c1ncnn3cc(-c4cnn(C(F)F)c4)cc13)C2 (single isomer, unassigned)", "human JAK1 catalytic kinase (JH1) domain (Homo sapiens (Human))", "nM", 5120),
    ("O=C(N1C2CCC1CN(c1ncnn3cc(-c4cnn(C(F)F)c4)cc13)C2)C1(F)CC1", "human JAK1 catalytic kinase (JH1) domain (Homo sapiens (Human))", "nM", 1040),
    ("Cn1cc(-c2nc3c(N4CC5CCC(C4)N5C(=O)[C@@H]4CC4(F)F)ccnc3[nH]2)cn1", "human JAK1 catalytic kinase (JH1) domain (Homo sapiens (Human))", "nM", 14),
    ("Cc1c(-c2cnn(C)c2)[nH]c2nccc(N3CC4CCC(C3)N4C(=O)[C@@H]3C[C@H]3F)c12", "human JAK1 catalytic kinase (JH1) domain (Homo sapiens (Human))", "nM", 1240),
    ("O=C([C@@H]1C[C@H]1F)N1C2CCC1CN(c1ccnn3cc(-c4cnn(C(F)(F)F)c4)cc13)C2", "human JAK1 catalytic kinase (JH1) domain (Homo sapiens (Human))", "nM", 38),
    ("CC(F)(F)C(=O)N1C2CCC1CN(c1ncnn3cc(-c4cnn(C(F)F)c4)cc13)C2", "human JAK1 catalytic kinase (JH1) domain (Homo sapiens (Human))", "nM", 1140),
]

src = patent US20240360157A1
